Consider the following compounds and their measured IC50 readings.
target: Mitogen-activated protein kinase 14 (Homo sapiens); assay: Inhibition of wild-type human P38alpha MAPK expressed in Escherichia coli Rosetta cells
Sequence (Q16539 whole entry): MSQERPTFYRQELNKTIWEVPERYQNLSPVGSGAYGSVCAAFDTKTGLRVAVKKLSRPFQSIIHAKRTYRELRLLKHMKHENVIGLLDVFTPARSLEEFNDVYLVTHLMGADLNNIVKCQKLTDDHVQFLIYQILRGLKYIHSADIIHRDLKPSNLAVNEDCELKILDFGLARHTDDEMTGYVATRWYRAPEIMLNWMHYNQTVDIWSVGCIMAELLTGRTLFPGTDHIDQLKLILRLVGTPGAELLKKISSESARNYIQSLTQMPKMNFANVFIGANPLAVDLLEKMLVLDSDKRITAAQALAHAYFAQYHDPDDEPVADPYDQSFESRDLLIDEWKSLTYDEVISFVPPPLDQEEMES

>  <Chemical Structure>
CCCCCCCCCCCCCCCCCCOC[C@H](COP(=O)(O)O[C@H]1[C@H](O)[C@@H](O)[C@H](O)C[C@H]1OCC(C)C)OC

>  <Target Or System>
Mitogen-activated protein kinase 14 (Homo sapiens)

>  <IC50 [nM]>
1200

$$$$
>  <Chemical Structure>
CCCCCCCCCCCCCCCCCCOC[C@H](COP(=O)(O)O[C@H]1[C@H](O)[C@@H](O)[C@H](O)C[C@H]1OCC1CCCCC1)OC

>  <Target Or System>
Mitogen-activated protein kinase 14 (Homo sapiens)

>  <IC50 [nM]>
1200

$$$$
